Target: basic fibroblast growth factor (bFGF) (Homo sapiens, UniProt P09038 P09038:143-288)
Sequence (P09038 143-288, one chain of several): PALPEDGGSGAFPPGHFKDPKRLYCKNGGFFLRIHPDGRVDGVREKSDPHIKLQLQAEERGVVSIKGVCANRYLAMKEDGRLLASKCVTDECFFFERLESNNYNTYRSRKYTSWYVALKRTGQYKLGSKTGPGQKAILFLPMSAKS
Experiment: filter; specificity control, like random RNA; TBSC
Recorded endpoint: Kd (nM)
The response must be a number in nM with no trailing unit.

Example binders with recorded Kd:
{"Binder": "72 (ssRNA) RNA: GGGAGCUCAGAAUAAACGCUCAAGACCUCUGCUUACAGCCCGGCUGAGACACUUCGACAUGAGGCCCGGAUCCGGC", "Unit spec": "nM", "Kd": 180}
{"Binder": "80 (ssRNA) RNA: GGGAGCUCAGAAUAAACGCUCAAGCUCUGGGAUGAUGCCCAGUGUCCAGCAUCUUCGACAUGAGGCCCGGAUCCGGC", "Unit spec": "nM", "Kd": 240}
{"Binder": "87 (ssRNA) RNA: GGGAGCUCAGAAUAAACGCUCAAGCUCUGGGAUGAUGCCCACUGUCCAGCAUCUUCGACAUGAGGCCCGGAUCCGGC", "Unit spec": "nM", "Kd": 220}

Now look at this one.
Return reported Kd; argument: 2 (ssRNA) RNA: GGGAGCUCAGAAUAAACGCUCAAUCUCAUUGCUCGUCGCACGGCGUAACCUAUUUCGACAUGAGGCCCGGAUCCGGC
230
